Record set: IC50 | Epidermal growth factor receptor (Homo sapiens, UniProt P00533) | literature, multiple sources.

Some molecules with recorded IC50:
CCc1nc(-c2ccc(CO)c(OC)c2)c(-c2ccnc(Nc3ccc(N4CCN(C(C)=O)CC4)nc3)n2)s1: > 1000 nM
C=CC(=O)N1CCc2ccc(-c3c(-c4ccc(N5CCN(C)CC5)nc4)[nH]c4nccc(Cl)c34)cc21: ≤ 100 nM
NS(=O)(=O)c1ccc(Nc2nc3ncnc(Nc4c(F)cccc4F)c3s2)cc1: 187 nM
C#Cc1cccc(Nc2ncnc3cc(OCC)c4c(c23)OCCO4)c1: < 50 nM
Fc1ccc(Nc2ncnc3nc(Nc4ccccc4)sc23)cc1Cl: 59.3 nM
COc1ccc(Nc2nc(-c3ccc4c(CN5CC(O)C5)c[nH]c4c3)cnc2C(N)=O)cc1OC: 140 nM

Task: Which IC50 is reported for this molecule? CCc1cc(Nc2ncc(Br)c(Nc3ccc(-c4ccc(OC)cn4)cc3P(C)(C)=O)n2)c(OC)cc1N1CCC(N2CCN(C)CC2)CC1
Result: 35.8 nM

Task: Which IC50 is reported for this molecule? C=CC(=O)N1CCCC(Nc2cc(Nc3ccc(Oc4ccccc4)cc3)ncn2)C1 (centres unmarked)
Result: 10 to 100 nM
